readout.label: flash point (°C)

Here are 2 molecules together with their reported answers.
C=C[Si]1(C)O[Si](C)(C=C)O[Si](C)(C=C)O[Si](C)(C=C)O1 (stereo not given) :: 112.00
C=C[Si](OC(C)=O)(OC(C)=O)OC(C)=O :: 88.00

A = CCCCCCCC[Si](Cl)(Cl)Cl
B = C[Si]1(C)O[Si](C)(C)O[Si](C)(C)O1
C = C[Si](C)(C)F
(Q) Ordering: ascending flash point. To answer, write out the labels according to the requested order.
(A) C, B, A

---

readout.label: flash point (°C)

Here are 3 molecules together with their reported answers.
C[Si]1(C)O[Si](C)(C)O[Si](C)(C)O[Si](C)(C)O[Si](C)(C)O[Si](C)(C)O1 :: 93.00
C[Si](C)(C)F :: -35.00
CCN(CC)[Si](C)(C)C :: 10.00

1 = CCCCCCCCCCCCCCCC[Si](Cl)(Cl)Cl
2 = c1ccc([SiH2]c2ccccc2)cc1
(Q) Which numeric flash point is bigger, that of 1 or that of 2 ? Write down the label attached to your selection.
(A) 1

P = CCCCCCCC[Si](Cl)(Cl)Cl
Q = CC(C)(C)[Si](C)(C)O
R = Cl[Si](Cl)(c1ccccc1)c1ccccc1
(Q) Ordering: ascending flash point. To answer, write out the labels according to the requested order.
(A) Q, P, R
(Q: 45.00 °C, P: 96.00 °C, R: 142.00 °C)

---

readout.label: flash point (°C)

Here are 5 molecules together with their reported answers.
CCC(=O)OCc1ccccc1 [benzylpropanoate] :: 96
OC1CCCC1 :: 51
C=COCC :: -45
CC(=O)CC(=O)OC(C)(C)C [tert-butylacetoacetate] :: 76
CCC(C)(C)C(C)(C)C :: 16

I = C=CCCCCC
II = CC#CCCCCCCCCC
III = CCC(N)CC
IV = C=C(C)CC
(Q) Ordering: ascending flash point. To answer, write out the labels according to the requested order.
(A) IV, I, III, II

P = Cc1cccc(C(C)C)c1
Q = CCSC [ethylmethylsulfide]
(Q) // pick min by flash point: P , Q Write down the label attached to your selection.
(A) Q

P = CC(=O)c1ccccc1
Q = CCC(C)CC(C)CC (configuration not stated)
R = CCCC(CC)C(C)(C)C (configuration not stated)
S = CCCCCC(C)(C)C
(Q) Ranking field: flash point; order: falling. To answer, write out the labels according to the requested order.
(A) P, R, S, Q

1 = CCC(=O)O
2 = CCC(C)(CC)C(C)C
3 = CC=C(C)C
4 = CC=C1CC2C=CC1C2 (configuration not stated)
5 = CCCCCCCCCCCc1ccccc1
(Q) Ranking field: flash point; order: falling. To answer, write out the labels according to the requested order.
(A) 5, 1, 4, 2, 3
(5: 144 °C, 1: 58 °C, 4: 29 °C, 2: 15 °C, 3: -45 °C)

---

readout.label: flash point (°C)

CCCCCCCCC=O [n-nonanal] :: 71
CCCCBr [1-bromobutane] :: 13
CC(C)(C)N [tert-butylamine] :: -9
CCCC1CCCCC1 [n-propylcyclohexane] :: 35
N#Cc1ccccc1 [benzonitrile] :: 75

a = CC=CCCC [2-hexene]
b = OCCCCCCO [1,6-hexanediol]
c = CC(=O)OC(C)(C)C [acetic acid, 1,1-dimethylethyl ester]
(Q) Ordering: ascending flash point. To answer, write out the labels according to the requested order.
(A) a, c, b
